test system: K562; test: NCI tumour cell line growth inhibition, 48 h
Structures can show the parent of a compound that is named as a salt. Active and inactive are the calls of the source. Rule as the data show it: active = GI50 up to about 1.1 µM and inactive = higher.
Outcome field: choose from 1.0 = active, 0.0 = inactive

So what was the verdict on C[N+](C)(CCNc1ccc(NCC[N+](C)(C)Cc2ccc([N+](=O)[O-])cc2)c2c1C(=O)c1c(O)ccc(O)c1C2=O)Cc1ccc([N+](=O)[O-])cc1 in this test?
0.0

So what was the verdict on CC(=O)O[C@H]1C[C@H](O[C@H]2[C@@H](O)C[C@H](O[C@H]3[C@@H](O)C[C@H](O[C@H]4CC[C@@]5(C)[C@H](CC[C@@H]6[C@@H]5C[C@@H](O)[C@]5(C)[C@@H](C7=CC(=O)OC7)CC[C@]65O)C4)O[C@@H]3C)O[C@@H]2C)O[C@H](C)[C@H]1O[C@@H]1O[C@H](CO)[C@@H](O)[C@H](O)[C@H]1O [LANATOSIDE C] in this test?
1.0

So what was the verdict on C[C@H](CS)C(=O)N1c2ccccc2C[C@H]1C(=O)O in this test?
0.0

So what was the verdict on N=C(N)NS(=O)(=O)c1ccc(NC(=O)c2cccc3c(Nc4ccc(S(=O)(=O)N=C(N)N)cc4)c4ccc(Cl)cc4nc23)cc1 in this test?
0.0

So what was the verdict on COc1ccccc1-c1cc(=O)c2ccccc2[nH]1 in this test?
0.0

So what was the verdict on O=C(CSCC(=O)N/N=C\c1cc(Cl)cc(Cl)c1O)N/N=C\c1cc(Cl)cc(Cl)c1O in this test?
0.0

So what was the verdict on Cc1cc(C)c2c(c1)C/C(=C\c1cccc(C)c1C(=O)O)C2=O in this test?
0.0

So what was the verdict on CC1(C)OP23(NC(=O)OC2(C(F)(F)F)c2ccccc2O3)OC1(C)C (configuration not stated) in this test?
0.0

So what was the verdict on COc1ccc(N2C(=O)C3c4[nH]c5ccccc5c4C4C(C)CCCC4C3C2=O)cc1 (configuration not stated) in this test?
0.0

So what was the verdict on c1ccc([P+](CCCCCCCC[P+](c2ccccc2)(c2ccccc2)c2ccccc2)(c2ccccc2)c2ccccc2)cc1 in this test?
0.0

So what was the verdict on COc1cc(/C=C/C2=NN(c3cccc(S(=O)(=O)O)c3)C3(C2)C(Cl)C(=O)N3c2nc3ccccc3s2)ccc1O (configuration not stated) in this test?
0.0

So what was the verdict on CC/C(=C(\c1ccccc1)c1ccc(OCCN(C)C)cc1)c1ccccc1 [TAMOXIFEN CITRATE] in this test?
0.0

So what was the verdict on O=c1c2cc3c(cc2c2cccc4c2n1CCC4)OCO3 in this test?
0.0

So what was the verdict on Cc1ccc(Cl)c2c1NC(=O)/C2=N\Nc1ccccc1[N+](=O)[O-] in this test?
0.0

So what was the verdict on CCCCC[C@@H]1OC(=O)[C@@]2(CC3c4ccccc4C2c2ccccc23)[C@H]1C(=O)OC in this test?
0.0

So what was the verdict on CS/C(=N/S(=O)(=O)c1ccc(Cl)cc1)NCCCN/C(=N\S(=O)(=O)c1ccc(Cl)cc1)SC in this test?
0.0

So what was the verdict on N#CC(Cc1ccccc1Br)N(CCC1=CCCCC1)C(c1ccccc1)c1ccccc1 (configuration not stated) in this test?
0.0

# credit: ChEMBL document CHEMBL1201862
